Test system: MOLT-4 leukemia
Assay: NCI tumour cell line growth inhibition, 48 h
Items are presented alongside their recorded TGI.

CHEMICAL STRING: CC(C)CCNC(=O)c1ccc(CNC(=O)/C=C/c2ccc(-c3ccccc3[N+](=O)[O-])o2)cc1
TGI: > 100 µM
--
CHEMICAL STRING: N/C(=N\C(=S)N1CCCCC1)N1CCCCC1
TGI: > 100 µM
--
CHEMICAL STRING: Cc1cc2c3c(ccc4ncc(c43)CN2c2ccc(NS(C)(=O)=O)cc2)[nH]1
TGI: > 100 µM
--
CHEMICAL STRING: COc1ccc(C2=C(OC(C)=O)c3cccn3-c3ccccc3S2)cc1
TGI: > 10 µM
--
CHEMICAL STRING: O=C(c1nsc(Cl)c1Cl)N1CCCCC1
TGI: > 100 µM
--
CHEMICAL STRING: O=S(=O)(Nc1ccccc1S(=O)(=O)c1ccccc1)c1ccccc1
TGI: > 100 µM
